- TARGET ENTITY: HLA-A*02:01
- ASSAY OVERVIEW: IEDB peptide-MHC binding, purified MHC/competitive/radioactivity; filed as Kd, often an IC50 or EC50 that approximates it; bounds were set here for any values at or beyond the usual limits of such assays
- CONDITION: source organism: Dengue virus 4 Philippines/H241/1956
QUANTITY MEASURED: Kd (nM)
Quick note: give the figure in nM, leave out the unit.

Guide cases for Kd, answers given:
LLVKLALITV	17.6
GLFGKTQVGV	6.21
GVFHTMWHV	7.59

response.value for `LLAGFMAYM` (field: Kd) = 4.7

response.value for `VTYECPLLV` (field: Kd) = 26.6

response.value for `FMKDGRSLV` (field: Kd) = 219
